Biological target: human FSH receptor (Homo sapiens, UniProt P23945)
Construct: expressed in transfected cells; host or cells: Chinese Hamster Ovary (CHO) cells, stably transfected, cotransfected with CRE/promotor-firefly luciferase reporter
Sequence (P23945 18-695): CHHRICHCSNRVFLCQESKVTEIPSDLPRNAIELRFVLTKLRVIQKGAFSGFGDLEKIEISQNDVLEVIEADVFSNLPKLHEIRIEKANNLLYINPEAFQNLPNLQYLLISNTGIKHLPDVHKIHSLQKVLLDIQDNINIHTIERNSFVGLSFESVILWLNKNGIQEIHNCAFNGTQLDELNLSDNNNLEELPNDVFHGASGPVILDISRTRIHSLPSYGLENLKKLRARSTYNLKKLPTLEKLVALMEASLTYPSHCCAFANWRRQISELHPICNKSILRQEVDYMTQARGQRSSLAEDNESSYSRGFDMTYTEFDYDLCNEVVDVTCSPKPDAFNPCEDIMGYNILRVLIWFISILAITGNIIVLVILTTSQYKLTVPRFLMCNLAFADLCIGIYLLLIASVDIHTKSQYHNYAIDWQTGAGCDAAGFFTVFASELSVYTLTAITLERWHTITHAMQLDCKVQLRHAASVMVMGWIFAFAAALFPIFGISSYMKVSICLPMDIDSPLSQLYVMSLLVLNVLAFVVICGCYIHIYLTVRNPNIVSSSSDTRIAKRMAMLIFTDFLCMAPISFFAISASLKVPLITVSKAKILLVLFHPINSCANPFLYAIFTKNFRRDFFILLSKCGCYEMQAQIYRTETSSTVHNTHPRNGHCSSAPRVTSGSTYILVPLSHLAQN
Assay: Agonistic activity of compounds at the human FSH receptor expressed in CHO cells, CRE/luciferase reporter (hFSHRago (CHO luc))
Assay type: cell-based
Conditions: CHO cells stably transfected with the human FSH receptor and CRE/firefly luciferase reporter; 4 hours of incubation; half-maximal stimulation relative to the compound's own maximal effect; read-out: hFSHRago (CHO luc) EC50
pEC50: −log10 of the molar value.
Class definitions on pEC50: lo = under 7, mid = from 7 up to 8, hi = 8 and over

Some entries whose results are on file:
>>> assigned_label("COc1cc2c(cc1-c1ccccc1C#N)-c1c(-c3cccs3)nc(C(=O)N(C)C(C)(C)C)n1CC2")
"hi"
>>> assigned_label("COc1cc2c(cc1-c1cccnc1)-c1c(C(C)(C)C)nc(C(=O)N(C)C(C)(C)C)n1CC2 [Example 44e]")
"mid"

Now let's try a different one.
Ask: Just checking, what class would you give COc1cc2c(cc1-c1ccc3c(c1)OCO3)-c1c(-c3cccs3)nc(C(=O)N(C)C(C)(C)C)n1CC2 here?
Result: lo

###

Target: human FSH receptor (Homo sapiens, UniProt P23945)
Construct: expressed in transfected cells; host or cells: Chinese Hamster Ovary (CHO) cells, stably transfected, cotransfected with CRE/promotor-firefly luciferase reporter
Test: Agonistic activity of compounds at the human FSH receptor expressed in CHO cells, CRE/luciferase reporter (hFSHRago (CHO luc))
Assay type: cell-based
Conditions: CHO cells stably transfected with the human FSH receptor and CRE/firefly luciferase reporter; 4 hours of incubation; half-maximal stimulation relative to the compound's own maximal effect; read-out: hFSHRago (CHO luc) EC50
Source text: The term EC50 means the concentration of the test compound that elicits half-maximal (50 %) stimulation compared to the compound's maximally attainable effect. The values can be determined e.g. in a cell line transfected with a FSH receptor gene and cotransfected with a cAMP responsive element/promoter directing the expression of a reporter gene. Values can be determined using a software program such as MathIQ (version 2.0, ID Business Solutions Limited). […]
Rule: EC50 below 9 nM gives T, anything at or above gives F.

>>> assigned_label("C=Cc1cc2c(cc1CC(C)C)-c1c(-c3cccs3)nc(C(=O)N(C)C(C)(C)C)n1CC2 [Example 19d]")
"F"
>>> assigned_label("COc1cc2c(cc1OC(C)C)-c1c(-c3cccs3)nc(C(=O)N3CCCC3(C)C)n1CC2")
"T"
>>> assigned_label("COc1cc2c(cc1NC(=O)CN1CCOCC1)-c1c(-c3cccs3)nc(C(=O)N(C)C(C)(C)C)n1CC2")
"F"
>>> assigned_label("COc1cc2c(cc1-c1cccc(N3CCOCC3)n1)-c1c(-c3cccs3)nc(C(=O)N(C)C(C)(C)C)n1CC2")
"F"

Ask: In plain terms, does COc1cc2c(cc1C(=O)Nc1nncs1)-c1c(-c3cccs3)nc(C(=O)N(C)C(C)(C)C)n1CC2 come in under 9 nM for EC50?
Result: T

Ask: In plain terms, does COc1cc2c(cc1OC)-c1c(-c3cccs3)nc(C(=O)N(CCO)C(C)C)n1CC2 come in under 9 nM for EC50?
Result: F

Ask: In plain terms, does COc1cc2c(cc1NC(=O)c1nccs1)-c1c(-c3cccs3)nc(C(=O)N(C)C(C)(C)C)n1CC2 come in under 9 nM for EC50?
Result: F

Ask: In plain terms, does COc1cc2c(cc1NC(=O)C(C)O)-c1c(-c3cccs3)nc(C(=O)N(C)C(C)(C)C)n1CC2 (stereo not drawn) come in under 9 nM for EC50?
Result: F

Ask: In plain terms, does COc1cc2c(cc1OC(C)C)-c1c(-c3cccs3)nc(C(=O)N3CC4CC(C3)CN(C(=O)C3CCC3)C4)n1CC2 [Example 29d] come in under 9 nM for EC50?
Result: T

Ask: In plain terms, does COc1cc2c(cc1CC(C)C)-c1c(-c3cncs3)nc(C(=O)N(C)C(C)(C)C)n1CC2 come in under 9 nM for EC50?
Result: F

Ask: In plain terms, does COc1cc2c(cc1-c1cccc(F)c1)-c1c(-c3cccs3)nc(C(=O)N(C)C(C)(C)C)n1CC2 come in under 9 nM for EC50?
Result: T

Ask: In plain terms, does COc1cc2c(cc1OCCO)-c1c(-c3cccs3)nc(C(=O)N(C)C(C)(C)C)n1CC2 [Example 30c] come in under 9 nM for EC50?
Result: T

Ask: In plain terms, does COc1cc2c(cc1-c1cccc(F)n1)-c1c(-c3cccs3)nc(C(=O)N(C)C(C)(C)C)n1CC2 come in under 9 nM for EC50?
Result: T

Ask: In plain terms, does COc1cc2c(cc1OCCN)-c1c(-c3cccs3)nc(C(=O)N(C)C(C)(C)C)n1CC2 come in under 9 nM for EC50?
Result: F

Ask: In plain terms, does COc1cc2c(cc1-c1cccc(C(=O)N(C)C)c1)-c1c(-c3cccs3)nc(C(=O)N(C)C(C)(C)C)n1CC2 come in under 9 nM for EC50?
Result: F

Ask: In plain terms, does COc1cc2c(cc1-c1cccc(NC(C)=O)c1)-c1c(-c3cccs3)nc(C(=O)N(C)C(C)(C)C)n1CC2 come in under 9 nM for EC50?
Result: T

Ask: In plain terms, does COc1cc2c(cc1OC)-c1c(-c3ccccc3)nc(C(=O)N3CCCCCC3)n1CC2 [Example 49d] come in under 9 nM for EC50?
Result: F

Ask: In plain terms, does COc1cc2c(cc1SC(C)C)-c1c(-c3cccs3)nc(C(=O)N(C)C(C)(C)C)n1CC2 [Example 52c] come in under 9 nM for EC50?
Result: F

Ask: In plain terms, does COc1cc2c(cc1CC(C)C)-c1c(-c3cccs3)nc(C(=O)N(C)C(C)(C)C)n1CC2 [Example 18k] come in under 9 nM for EC50?
Result: T

Ask: In plain terms, does COc1cc2c(cc1NC(=O)[C@H](C)N)-c1c(-c3cccs3)nc(C(=O)N(C)C(C)(C)C)n1CC2 come in under 9 nM for EC50?
Result: F

Ask: In plain terms, does COc1cc2c(cc1Oc1ccccc1)-c1c(-c3cccs3)nc(C(=O)N(C)C(C)(C)C)n1CC2 [Example 42b] come in under 9 nM for EC50?
Result: F

Ask: In plain terms, does COc1cc2c(cc1OC(C)C)-c1c(-c3cncs3)nc(C(=O)N(C)C(C)(C)C)n1CC2 [Example 47e] come in under 9 nM for EC50?
Result: T

Ask: In plain terms, does COc1cc2ccn3c(C(=O)N(C)C(C)(C)C)nc(-c4cccs4)c3c2cc1-c1cnn(C)c1 [Example 17b] come in under 9 nM for EC50?
Result: F

Ask: In plain terms, does COc1cc2c(cc1OCCN=[N+]=[N-])-c1c(-c3cccs3)nc(C(=O)N(C)C(C)(C)C)n1CC2 [Example 30e] come in under 9 nM for EC50?
Result: F

Ask: In plain terms, does COc1cc2c(cc1CCC(C)(C)O)-c1c(-c3cccs3)nc(C(=O)N(C)C(C)(C)C)n1CC2 [Example 41c] come in under 9 nM for EC50?
Result: F

Ask: In plain terms, does COc1cc2c(c(F)c1CC(C)C)-c1c(-c3cccs3)nc(C(=O)N(C)C(C)(C)C)n1CC2 [Example 48j] come in under 9 nM for EC50?
Result: T

Entry source: patent EP2435433B1
